# ASSAYED_SYSTEM: T1, CD33 on MOLM-13 cells (human, UniProt P20138 18-364)
# T1 construct: whole, on cells; also called MOLM-13 cell line expressing CD33; wild-type MOLM-13 cells (CD33+)
# T1 sequence (P20138 18-364): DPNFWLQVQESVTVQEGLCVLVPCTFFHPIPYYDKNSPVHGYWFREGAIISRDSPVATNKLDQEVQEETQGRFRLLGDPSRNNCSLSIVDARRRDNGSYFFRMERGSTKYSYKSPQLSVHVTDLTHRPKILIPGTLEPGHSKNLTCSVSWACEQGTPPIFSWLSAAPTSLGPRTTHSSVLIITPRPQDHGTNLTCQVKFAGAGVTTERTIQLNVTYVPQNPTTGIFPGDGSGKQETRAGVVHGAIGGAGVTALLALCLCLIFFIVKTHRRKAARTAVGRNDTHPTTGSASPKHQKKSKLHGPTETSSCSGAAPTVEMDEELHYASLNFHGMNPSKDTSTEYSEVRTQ
# PROCEDURE_TEXT: FACS, MOLM-13 cells expressing CD33 against MOLM-13 CD33 knockout
QUANTITY_KIND: binding result

BINDER | binding result
sdCD33_8 (VHH, sdAb from a naive llama phage library; also called 424; sdAb424) VHH: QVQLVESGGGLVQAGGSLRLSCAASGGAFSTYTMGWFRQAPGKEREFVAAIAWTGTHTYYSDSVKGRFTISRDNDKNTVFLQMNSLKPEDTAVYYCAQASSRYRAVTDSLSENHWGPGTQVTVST | binds
sdCD33_9 (VHH, sdAb from a naive llama phage library; also called 426; sdAb426) VHH: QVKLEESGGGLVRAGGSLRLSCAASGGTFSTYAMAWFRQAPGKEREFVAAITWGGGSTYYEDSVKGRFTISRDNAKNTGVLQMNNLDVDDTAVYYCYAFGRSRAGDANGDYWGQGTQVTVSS | binds
sdCD33_11 (VHH, sdAb from a naive llama phage library; also called 430; sdAb430) VHH: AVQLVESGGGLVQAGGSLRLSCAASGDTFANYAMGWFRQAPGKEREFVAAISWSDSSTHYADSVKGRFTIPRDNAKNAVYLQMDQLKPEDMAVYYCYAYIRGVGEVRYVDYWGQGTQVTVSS | binds
sdCD33_6 (VHH, sdAb from a naive llama phage library; also called 416; sdAb416) VHH: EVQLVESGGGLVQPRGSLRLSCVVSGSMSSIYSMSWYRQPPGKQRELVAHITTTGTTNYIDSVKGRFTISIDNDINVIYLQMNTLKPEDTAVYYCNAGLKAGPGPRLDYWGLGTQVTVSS | binds
sdCD33_7 (VHH, sdAb from a naive llama phage library; also called 420; sdAb420) VHH: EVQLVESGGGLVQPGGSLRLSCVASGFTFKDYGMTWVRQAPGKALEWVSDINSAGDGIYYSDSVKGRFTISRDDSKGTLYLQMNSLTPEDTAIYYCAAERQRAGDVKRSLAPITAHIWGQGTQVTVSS | binds

Query string: What value of binding result has been recorded for this entry: sdCD33_5 (VHH, sdAb from a naive llama phage library; also called 413; sdAb413) VHH: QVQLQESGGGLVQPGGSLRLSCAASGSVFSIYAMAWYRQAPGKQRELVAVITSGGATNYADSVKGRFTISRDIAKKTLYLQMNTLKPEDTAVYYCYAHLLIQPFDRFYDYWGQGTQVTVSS
Result string: binds
